assayTarget: T1, PUF4 RNA-binding domain (Saccharomyces cerevisiae, UniProt P25339 537-888)
T1 sequence: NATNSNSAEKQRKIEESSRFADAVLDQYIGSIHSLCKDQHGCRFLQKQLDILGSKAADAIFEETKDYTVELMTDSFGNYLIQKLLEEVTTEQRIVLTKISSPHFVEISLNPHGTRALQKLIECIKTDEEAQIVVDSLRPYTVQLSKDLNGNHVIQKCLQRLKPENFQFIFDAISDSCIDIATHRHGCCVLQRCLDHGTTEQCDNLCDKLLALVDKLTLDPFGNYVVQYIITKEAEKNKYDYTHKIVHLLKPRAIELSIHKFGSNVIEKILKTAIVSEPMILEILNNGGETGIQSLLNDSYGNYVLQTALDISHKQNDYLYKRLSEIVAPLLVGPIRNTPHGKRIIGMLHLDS
assayOverview: Mg; RNA-MaP; 20 mM Na-HEPES pH 7.4, 30 mM KOAc, 0.75 mM MgCl2, 0.1% Tween-20, 5% glycerol, 0.1 mg/mL BSA, 2 mM DTT; 25 C; 0.0125-409.6 nM protein
conditionSet: tags: N-His6-TEV cleaved; C-SNAP kept, Cy3B-labelled; label: tethered on chip by stalled RNA polymerase
log10(Kd) listing for selected binders.
experimentalEndpoint: log10(Kd) (log10 of the value in nM)

{"columns": ["binder", "readoutValue"],
 "data": [
  ["If_S4_P3E.2_K3.1_C3.2_H3.1_A3.1_F3.1_T3.2 (ssRNA) RNA: UUUGACAACUGAUCGUUCUUUCUCUUGUAUAUAUAUUCUUUCUCGAUCAGUUGUCUUU", -0.02],
  ["UCUCUUAUACACUAUUACCUCUCUU (ssRNA) [Id_ii_S1_P4E.4_K4.3_C4.2_[C-2A]_H4.3_A4.1_F4.1_T4.2_[G10C]_[T11C]]", 1.42],
  ["Id_ii_S2_P4E.3_K4.2_C4.2_[C-2A]_H4.2_A4.1_F4.1_T4.2_[G10C]_[T11G] (ssRNA) RNA: UUUGAUUAAUAUGAUAUCGUUCUUUCUAUUAUAUAUUACGUUCUUUCUCGAUAUCAUAUUAAUCUUU", 1.40],
  ["UCUCUUGCUGUAUAUACUUCUCUU (ssRNA) [Id_ii_S1_P3E.2_K3.1_C3.2_[C-2G]_[T-1C]_H3.1_A3.1_F3.1_T3.2_[T9C]_[A10T]]", 1.50],
  ["UCUCUUUGCAUGUAUCUCUU (ssRNA) [Ib_S1_P3E.1_K3.1_C3.1_H3.1_[T3C]_A3.1_[A6G]_F3.1_T3.1]", 2.73],
  ["UCUCUUUAUAUAUAUAGUUCUCUU (ssRNA) [Id_ii_S1_P3E.3_K3.2_C3.2_[C-2T]_[T-1A]_H3.2_A3.1_F3.1_T3.2_[T9G]_[A10T]]", 2.15]
]}
